Data provenance is PubChem BioAssay (NCI).

Test system: MOLT-4 leukemia
Test: NCI-60 one-dose screen, 48 h (100 = growth as untreated, 0 = no growth, -100 = all killed)
Settings: 10 µM unless noted
About 83,000 compounds went through this panel and 20% of them were active in at least one assay; those are over-represented in the sample as a whole.
Classify as follows. Reported growth greater than or equal to 20%: Condition met. Reported growth below: Condition not met.

Example entries and their recorded answers appear below.
>>> categorylabel("Cc1nn(-c2ccccc2)c(-n2ccnc2)c1/C=N/Nc1nc(-c2ccc(Cl)c(Cl)c2)cs1")
"Condition met"
>>> categorylabel("COc1cccc(-c2nn(-c3ccccc3)cc2-c2ccnc(N3CCOCC3)c2)c1")
"Condition met"
>>> categorylabel("O=c1c2cc(C(F)(F)F)ccc2sc2c(NCCCNCCO)nc3ccccc3c12")
"Condition not met"
>>> categorylabel("CCCCCCCNC(=O)CCCNc1ncnc2c1ncn2-c1cccc(C(C)O)c1 (centres undefined)")
"Condition met"

Prompt line: Please tell me: is the compound COc1ccc(OC)c(/C=C/C(=O)N/N=C/c2ccccc2)c1 at or over 20% in terms of growth?
Response line: Condition met

Prompt line: Same again, this time with O=C(Nc1ccc(F)cc1F)c1cc(F)ccc1O
Response line: Condition not met

Prompt line: Same again, this time with O=c1c2cccc(F)c2sc2c(NCCCNCCO)nc3ccccc3c12
Response line: Condition not met

Prompt line: Same again, this time with COc1ccc(C2CC(c3ccc(Nc4ccnc5cc(Cl)ccc45)cc3)=NN2C=O)cc1 (centres undefined)
Response line: Condition met

Prompt line: Same again, this time with COc1cc(C2CC(c3ccc(N(C)C)cc3)=NN2C(C)=O)cc(OC)c1OC (centres undefined)
Response line: Condition not met

Prompt line: Same again, this time with N#C/C(=C\c1cccc2cnccc12)n1nnc2cccc(F)c21
Response line: Condition met

Prompt line: Same again, this time with COC(=O)CCC/C=C\C[C@H]1C=CC(=O)/C1=C/C[C@@H](O)CCc1cccc(C(F)(F)F)c1
Response line: Condition not met

Prompt line: Same again, this time with C=C(C)[C@@H]1CC[C@]2(N=C=O)CC[C@]3(C)[C@H](CC[C@@H]4[C@@]5(C)Cc6c([nH]c7ccccc67)C(C)(C)[C@@H]5CC[C@]43C)[C@@H]12
Response line: Condition met

Prompt line: Same again, this time with CC/C=C\C[C@@H]1C/C=C2/C(=O)C=C[C@H]2C/C=C\CCCC(=O)O1
Response line: Condition not met

====

Test system: KM12 colon
Assay: NCI-60 one-dose screen, 48 h (100 = growth as untreated, 0 = no growth, -100 = all killed)
Details: 10 µM unless noted
Compounds without any hit were thinned out: in the full panel of roughly 83,000, 20% have a hit.
Label True when growth < 90%; otherwise False.

Example entries and their recorded answers appear below.
>>> categorylabel("Cc1nn(-c2ccccc2)c(-n2ccnc2)c1/C=N/Nc1nc(-c2ccc(Cl)c(Cl)c2)cs1")
"True"
>>> categorylabel("CC([C@H]1CCC2C3CCC4C[C@@H](NC=O)CC[C@]4(C)C3CC[C@@]21C)N(C)C (some centres undefined)")
"True"
>>> categorylabel("O=C1c2ccccc2NC(n2sc3ccccc3c2=O)N1c1ccccc1 (centres undefined)")
"False"

Prompt line: Consider C[C@]12CC[C@@H]3c4cc(OC(F)F)c(OS(N)(=O)=O)cc4CC[C@H]3[C@@H]1CC[C@@H]2O . Does its growth lie strictly below 90%?
Response line: True

Prompt line: Same again, this time with Cc1cccc(NC2=C(Cl)C(=O)c3nc(C)ccc3C2=O)c1
Response line: True

Prompt line: Same again, this time with C[C@H]1[C@H]2[C@H]3CC[C@@H]4[C@@]5(C)CC[C@H](O)C(C)(C)[C@@H]5CC[C@@]4(C)[C@]3(C)CC[C@]23CO[C@]1(C)[C@@H](C(=O)/C=C\c1cccnc1)C3
Response line: True

====

Test system: SF-295 CNS
Assay: NCI-60 one-dose screen, 48 h
Settings: 10 µM unless noted
Compounds without any hit were thinned out: in the full panel of roughly 83,000, 20% have a hit. Activity calls are given as the source filed them. How the source made its calls: active means growth percent below 10; inactive means the rest.
// one of active, inactive, no free text

>>> categorylabel("O=c1c2cccc(F)c2sc2c(NCCCNCCO)nc3ccccc3c12")
"inactive"

Prompt line: What did the test return for N/C(=N\c1nc2ccccc2s1)NC(=O)Nc1cccc2ccccc12 ?
Response line: inactive

Prompt line: Same again, this time with Cc1onc2c(-c3ccccc3)n[nH]c(=O)c12
Response line: inactive

Prompt line: Same again, this time with Cc1cccc(NCc2cn(-c3ccc(C(=O)O)cc3)nc2-c2ccc(C(=O)O)cc2)n1
Response line: inactive

Prompt line: Same again, this time with C=C(C)[C@@H]1CC[C@]2(N=C=O)CC[C@]3(C)[C@H](CC[C@@H]4[C@@]5(C)Cc6c([nH]c7ccccc67)C(C)(C)[C@@H]5CC[C@]43C)[C@@H]12
Response line: inactive

Prompt line: Same again, this time with CCOC(=O)C1=C(N)Oc2c(sc3c(C)cccc23)C1c1ccc(Cl)cc1 (centres undefined)
Response line: active

Prompt line: Same again, this time with COc1c(B(O)O)cc(C)cc1-c1nc2ccc3[nH]ncc3c2c2c1CCCC2
Response line: inactive

Prompt line: Same again, this time with N[C@@H](Cc1ccccc1)[C@@H](O)C(=O)NCc1ccc(F)cc1
Response line: inactive

Prompt line: Same again, this time with O=c1ccc(N=Nc2ccc([N+](=O)[O-])cc2)ccc1O
Response line: inactive

====

Tested on: IGROV1 ovarian
Assay: NCI-60 one-dose screen, 48 h
Settings: 10 µM unless noted
About 83,000 compounds went through this panel and 20% of them were active in at least one assay; those are over-represented in the sample as a whole. Activity calls are given as the source filed them. How the source made its calls: active means growth percent below 10; inactive means the rest.
// one of active, inactive, no free text

Example entries and their recorded answers appear below.
>>> categorylabel("CC(=O)N1N=C(c2ccc(Nc3nc(Nc4ccc(F)cc4)nc(Nc4ccc(Cl)cc4)n3)cc2)CC1c1ccc(Cl)cc1 (stereo not given)")
"inactive"
>>> categorylabel("COc1ccc2c(c1)/C(=C/c1sc(=S)n(Cc3ccco3)c1O)C=N2")
"inactive"
>>> categorylabel("[O-][n+]1c2ccccc2[n+]([O-])c2c3ccccc3[nH]c21")
"inactive"
>>> categorylabel("COc1ccc(-c2cc(-c3cc(OC)c(OC)c(OC)c3)nc(N3CCOCC3)c2C#N)cc1")
"inactive"
>>> categorylabel("COc1ccc(CNC(=O)C(=O)[C@H](Cc2ccccc2)NC(=O)c2[nH]c3ccccc3c(=O)c2C)cc1")
"inactive"
>>> categorylabel("CCOC(=O)Cn1c(=O)c2c(c3ccccc3n2C)n2nnc(-c3ccccc3)c12")
"inactive"

Prompt line: What did the test return for CCn1cnc2c1c(=O)[nH]c(=O)n2CC1CCC(CNS(=O)(=O)c2ccc(OC3CCOCC3)c(F)c2)CC1 (stereo not given) ?
Response line: inactive

Prompt line: Same again, this time with COc1nc2ccc(C)cc2cc1-c1nc2c(cnn2-c2ccccc2)c(=O)[nH]1
Response line: inactive

Prompt line: Same again, this time with COc1cc(C(=O)c2cc(C)c3[nH]c4ccc(C)cc4c3c2C)cc(OC)c1OC
Response line: inactive

Prompt line: Same again, this time with CCCCCCNC(=O)Oc1ccc(/C(=C(\C)c2ccc(Cl)cc2)c2ccc(OCCN(CC)CC)cc2)cc1
Response line: inactive

Prompt line: Same again, this time with c1ccc(CO[C@H]2CO[C@H]3[C@@H]2OC[C@@H]3Oc2ccc(Nc3ncnc4ccsc34)cc2)cc1
Response line: inactive

Prompt line: Same again, this time with c1cc(-c2nnc(SSc3ncnc4nc[nH]c34)o2)ccn1
Response line: inactive

Prompt line: Same again, this time with O=C(Cc1ccc(F)c(Cl)c1)Nc1cc(C2(C(F)(F)F)CC2)nn1Cc1ccccc1
Response line: inactive

Prompt line: Same again, this time with O=CN(SSN(C=O)C1CCCCC1)C1CCCCC1
Response line: inactive

Prompt line: Same again, this time with C[N+]1=C(/C=C/c2ccc(O)c3ncccc23)C(C)(C)c2ccccc21
Response line: inactive

Prompt line: Same again, this time with O=C(/C=C/c1sc(Cl)nc1Cl)c1ccc(F)cc1
Response line: inactive

Prompt line: Same again, this time with CCOC(=O)/C=C1\S/C(=N\Nc2ccc([N+](=O)[O-])cc2[N+](=O)[O-])N(Cc2ccccc2)C1=O
Response line: inactive

Prompt line: Same again, this time with O=C1c2cccc3cccc(c23)C(=O)N1N1C(=O)c2cccc3c(NC4CCCCC4)ccc(c23)C1=O
Response line: inactive

Prompt line: Same again, this time with CCN(CC)CCNc1nc2ccccc2c2c(=O)c3cc(Cl)ccc3sc12
Response line: inactive

Prompt line: Same again, this time with Cc1cc(=O)oc2cc(OC(=O)N3CCN(C)CC3)ccc12
Response line: inactive

====

Test system: OVCAR-5 ovarian
Assay: NCI-60 one-dose screen, 48 h
Details: 10 µM unless noted
Compounds without any hit were thinned out: in the full panel of roughly 83,000, 20% have a hit. The source made the active and inactive calls. Rule for the calls: active = growth percent below 10; inactive = the rest.
// one of active, inactive, no free text

>>> categorylabel("CCc1cccc2c1S/C(=C/c1ccc(Cl)cc1)C2=O")
"inactive"

Prompt line: What did the test return for CCc1nnc(NC(=O)c2nnn(-c3ccccc3)c2-c2ccco2)s1 ?
Response line: inactive

Prompt line: Same again, this time with COc1ccc(C2C(C#N)=C(N)Oc3c2sc2c(C)cccc32)cc1 (stereo not given)
Response line: inactive

Prompt line: Same again, this time with Cc1cc2nc3ccc(N=Nc4ccc(N(C)C)cc4)cc3n(-c3ccccc3)c-2cc1=N
Response line: active

Prompt line: Same again, this time with COc1ccc(-c2nn(C(=O)c3cc(OC)c(OC)c(OC)c3)c3cc(N)ccc23)cc1
Response line: inactive
